Recorded measurements of pIC50, one per entry
# Target System: purified human IDO protein (Homo sapiens)
# Test Protocol: Enzymatic IDO assay (kynurenine production, absorbance 480 nm)
# Experimental Conditions: hIDO IC50, recombinant human IDO, enzymatic activity; values reported in ranges
pIC50: −log10 of the molar value.

Ask: Request the reported pIC50 associated with Oc1ccccc1C(=S)NCCc1ccccc1 [compound 634, 2-Hydroxy-N-phenethylbenzothioamide]
Reply: 3.00 to 4.00

Ask: Looking for the measured pIC50 of S=C(NCCc1c[nH]c2ccccc12)SCCc1cccc(Br)c1 [compound 7] , can you help?
Reply: 3.00 to 4.00

Ask: Tell me the measured pIC50 of S=C(NCCCc1c[nH]c2ccccc12)Nc1nccs1 [compound 565] , please.
Reply: 3.00 to 4.00

Ask: What value of pIC50 has been recorded for this entry: NOCc1cccc([N+](=O)[O-])c1 [compound 317, O-(3-nitrobenzyl)hydroxylamine]
Reply: > 4.70

----------
# Target System: purified human IDO protein (Homo sapiens, UniProt P14902)
# Sequence (P14902 whole entry P110S/E119G): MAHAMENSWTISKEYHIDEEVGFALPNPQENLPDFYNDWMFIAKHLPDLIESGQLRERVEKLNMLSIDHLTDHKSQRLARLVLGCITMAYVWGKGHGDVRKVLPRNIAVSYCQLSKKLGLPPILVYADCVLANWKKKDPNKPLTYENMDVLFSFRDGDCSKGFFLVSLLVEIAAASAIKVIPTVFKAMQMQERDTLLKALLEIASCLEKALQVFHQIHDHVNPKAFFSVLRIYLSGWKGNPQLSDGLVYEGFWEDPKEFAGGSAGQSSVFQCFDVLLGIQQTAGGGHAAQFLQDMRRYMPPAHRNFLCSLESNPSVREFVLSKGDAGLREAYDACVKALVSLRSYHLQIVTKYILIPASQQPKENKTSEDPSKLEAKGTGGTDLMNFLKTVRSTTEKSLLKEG
# Test Protocol: Enzymatic IDO assay (kynurenine production, absorbance 480 nm)
# Experimental Conditions: hIDO IC50, recombinant human IDO, enzymatic activity; values reported in ranges
Parameter Measured: IC50

Ask: IC50 lookup needed for "O=C1CSC(=S)N1Cc1ccc2ccccc2c1" , thanks.
Reply: 20 to 100 µM

Next:
Ask: For the compound "S=C(NCCCc1c[nH]c2ccccc12)c1ccccc1" , what IC50 is on record?
Reply: 100 to 1000 µM

Ask: What does the data say about its IC50? Entry: S=C(NCCC1CCc2ccccc2O1)SCc1ccc2ccccc2c1 (centres unmarked)
Reply: 20 to 100 µM

Ask: What measured IC50 goes with "COc1cc2oc(=O)cc(CSC(=S)NCCc3c[nH]c4ccccc34)c2cc1OC" ?
Reply: 100 to 1000 µM

Ask: Can you share its IC50? I mean this compound: "Nc1ccc2[nH]cc(C(=O)O)c2c1"
Reply: 100 to 1000 µM

Ask: Requested field: IC50. Item: "CSC(=S)NCCc1ccncc1"
Reply: 100 to 1000 µM

Ask: Please give the measured IC50 for this compound: Cc1ccc(SC(=S)Nc2ccccc2)cc1 [compound 142, p-tolyl phenylcarbamodithioate]
Reply: < 20 µM

----------
# Target System: human IDO (Homo sapiens)
# Sequence (P14902 whole entry): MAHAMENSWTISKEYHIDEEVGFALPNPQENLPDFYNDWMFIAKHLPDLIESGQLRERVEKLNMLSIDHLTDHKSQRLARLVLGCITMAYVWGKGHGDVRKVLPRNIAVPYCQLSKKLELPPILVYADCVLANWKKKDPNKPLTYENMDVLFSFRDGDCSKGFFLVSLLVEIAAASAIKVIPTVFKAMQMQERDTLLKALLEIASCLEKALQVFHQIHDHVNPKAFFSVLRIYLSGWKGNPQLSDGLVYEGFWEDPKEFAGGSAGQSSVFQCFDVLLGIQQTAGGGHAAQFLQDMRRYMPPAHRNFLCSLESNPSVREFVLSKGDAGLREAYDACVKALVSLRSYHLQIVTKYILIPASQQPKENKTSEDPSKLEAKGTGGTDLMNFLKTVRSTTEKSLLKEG
# Test Protocol: Cell based IDO/kynurenine assay in IDO-293-T-Rex cells
# Experimental Conditions: hIDO EC50, Table 16; kynurenine production, 293T cells expressing human IDO
Parameter Measured: EC50

Ask: I have this compound here, NOCc1cc([N+](=O)[O-])cc([N+](=O)[O-])c1 [compound 1657, O-(3,5-dinitrobenzyl)hydroxylamine] , and I need its recorded EC50.
Reply: < 10 µM

----------
Listed compounds paired with reported IC50
# Target System: UniProt:P14902
# Test Protocol: Enzymatic IDO assay (kynurenine production, absorbance 480 nm)
# Experimental Conditions: hIDO IC50, Table 15; recombinant human IDO, enzymatic activity

Take a look at these entries with their results.
Ask: What does the record list as IC50 for "NOCc1cc(Cl)cc(-c2ccc(Cl)cc2)c1" ?
Reply: < 10 µM

Ask: Return reported IC50; argument: NOCc1ccccc1-c1ccncc1 [compound 1889, O-(2-(pyridin-4-yl)benzyl)hydroxylamine]
Reply: 10 to 100 µM

Ask: May I ask what IC50 has been recorded for NOC(CC1CCCCC1)c1ccccc1 (stereo not shown) ?
Reply: 10 to 100 µM

Ask: Fill in: IC50 of NOc1cccc2ccccc12 [compound 1903, O-(naphthalen-1-yl)hydroxylamine] is ___
Reply: < 10 µM

Ask: Look up IC50 for this compound: "Cc1nc(-c2ccccc2)ncc1CON"
Reply: 10 to 100 µM

***
Ask: What measured IC50 goes with NOC(CCN1CCOCC1)c1ccccc1 (stereo not shown) ?
Reply: 100 to 1000 µM

Ask: What value of IC50 has been recorded for this entry: "N#Cc1cccc(CON)c1"
Reply: < 10 µM

Ask: Requested field: IC50. Item: NOCC1CCc2ccccc2O1 (stereo not shown) [compound 1768, O-(chroman-2-ylmethyl)hydroxylamine]
Reply: < 10 µM

Ask: # query: IC50 of entry CNCCC(ON)c1ccccc1 (stereo not shown)
Reply: 100 to 1000 µM

Ask: IC50 for NOC(CCC(=O)NC1CCCCC1)c1ccccc1 (stereo not shown) ?
Reply: 100 to 1000 µM

Ask: Which IC50 is reported for this compound? NO[C@@H](CCO)c1ccccc1 [compound 1883, (S)-3-(aminooxy)-3-phenylpropan-1-ol]
Reply: 100 to 1000 µM

Ask: Reported IC50, compound NOC(Cc1ccccc1)c1ccccc1 (stereo not shown) [compound 1921, O-(1,2-diphenylethyl)hydroxylamine] : ____
Reply: < 10 µM

Ask: Could you tell me which IC50 is on file for "NOCc1cc(Cl)ccc1-c1ccc(C(F)(F)F)cc1" ?
Reply: < 10 µM

Ask: Quick one: IC50 for "NOCc1cccc(N)c1" ?
Reply: 10 to 100 µM

Ask: Consider the compound COC(=O)C(ON)c1ccccc1 (stereo not shown) [compound 1886, methyl 2-(aminooxy)-2-phenylacetate] and give its measured IC50.
Reply: < 10 µM

Ask: Record request: IC50 value, item "N#Cc1ccc(CON)cc1"
Reply: < 10 µM

Ask: Entry under review: NCC(ON)c1ccccc1 (stereo not shown) . Reported IC50?
Reply: 10 to 100 µM

Ask: Any idea what its IC50 is? The compound is "NOCc1cc(Cl)ccc1-c1cccc(Cl)c1"
Reply: < 10 µM

Ask: Record request: IC50 value, item "NOCc1cccc(-c2ccc(Cl)cc2)c1"
Reply: < 10 µM
